run_description: qHTS assay for MDR1-selective chemotherapeutics: Primary screen using the parental adenocarcinoma cell KB-3-1; also: nearly all actives have a fitted effect of over 60% in size
measurement_context: KB-3-1 viability, CellTiter-Glo ATP luminescence, 72 h; series mostly up to 46.1 µM
In all, about 400,000 compounds went through this assay and about 5,500 (1.4%) were called active. Inconclusive results (about 9%) are left out. Calls follow the shape of the dose curve; as a rule, active = well fitted cell-killing curve with a large enough effect; inconclusive = small, poorly fitted or top-dose-only effect, or effect the other way; inactive = flat fitted curve, though single readings scatter. This excerpt belongs to a sample that is enriched for actives.
Select the correct class. Options are 1 (yes) for active, 0 (no) for inactive and nothing else.

Solved cases below.
Would you mind telling me which call this test gave "CCCCn1c(=N)c(S(=O)(=O)c2ccccc2)cc2c(=O)n3cccc(C)c3nc21" ?
0 (no)

Would you mind telling me which call this test gave "O=[N+]([O-])c1c(NCCO)cc(Sc2nc3ccccc3s2)c2nonc12" ?
0 (no)

Could you please tell me the result logged for "Cc1ccc(NC(=O)Cn2nnc(C(=O)NCc3ccco3)c2N)c(C)c1" in this assay?
0 (no)

Short answer needed: outcome of this test for "CC(=O)Nc1ccc(Nc2c3ccccc3nc3ccccc23)cc1" ?
1 (yes)

Called result for "COc1ccccc1CN1CCC(CNC(=O)c2cnn(-c3cccc(Cl)c3)c2C2CCN(C(=O)OC(C)(C)C)CC2)CC1"
0 (no)

Given COc1ccc(N2CCN(C(=O)C3CCCN(C(=O)c4cc5sccc5n4C)C3)CC2)cc1 (stereo unspecified) , state the outcome it received in this test.
0 (no)

---
Assay result, entry "CN(Cc1ccccc1)c1ccc(/C=C/c2ccnc3ccccc23)cc1" — outcome?
0 (no)

Could you check what this test reported for "CN(NC(=O)c1ccccc1)c1nc2ccccc2nc1C(F)(F)F" ?
1 (yes)
